# SYSTEM_NAME: Mitogen-activated protein kinase 14 (Homo sapiens);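 further: values are mean percent inhibition of p38alpha kinase activity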
# PARTICULARS: at 1 µM
# key: entry, value: inhibition
Give the number; % is assumed, so skip it.

Worked cases, answers included:
MOLECULE | inhibition, %
COc1cccc(/C=N/Nc2ncnc3c2cnn3-c2cccc(OC)c2)c1 | 5.34
COc1cc2ncn(-c3cc(OCc4ccccc4C(F)(F)F)c(C(C)=O)s3)c2cc1OC | 3.85
CS(=O)(=O)CCNCc1ccc(-c2ccc3ncnc(Nc4ccc(OCc5ccccc5)c(Br)c4)c3c2)o1 | 5.46
Cc1nnc(-c2ccc(C)c(-c3ccc(C(=O)NCc4ccc(Cl)cc4)cc3)c2)o1 | 54.2
CNC(=O)c1cncc(/C=C/c2c(C)cccc2C)c1 | 7.55

Form field: reported inhibition of `CCS(=O)(=O)c1ccc(OC)c(Nc2ncc(-c3ccccc3Cl)o2)c1`
12.2

Looking for the measured inhibition of Nc1nccc(-c2c(-c3ccc(F)cc3)ncn2C2CCC(O)CC2)n1 (stereo not given) , can you help?
92.5

What value of inhibition has been reported for the following molecule? `COc1cc(Nc2ncc(-c3ccccc3)o2)cc(OC)c1OC`
-4.25

If you can, please state the reported inhibition value of `O=C(Nc1ccc(Oc2ccc3[nH]c(NC(=O)c4ccccc4)nc3c2)cc1)Nc1cc(C(F)(F)F)ccc1F` .
40

Requested read-out: inhibition. Entry: `O=C(NCC1CC1)c1ccc(-c2cccc(C(=O)NC3CC3)c2)cc1`
13.9
